test system: Plasmodium berghei; experiment: Luciferase/luciferin-expressing antifolate-resistant parasites were used to infect a culture of HepG2 cells that were pre-incubated with compounds. Infected hepatocytes emit light due to the luciferase reaction. Assay results are presented as the percent inhibition of light emission compared to control. […]; type: functional; conditions: sporozoite, read-out: LUCIFERASE INFECTION ASSAY - IC90
This listing pairs compounds with measured IC90.
readout: IC90

INSERT INTO assay_data (compound, result) VALUES
  ('CC(C)(C)C(=O)Nc1ccc(-c2nc3ncccc3o2)c(Cl)c1', '4.94 µM'),
  ('Cc1cc(CSc2ccccc2)ccc1NC(=O)Nc1ccccc1', '> 9.47 µM'),
  ('N#CC(C#N)=C1C=C(c2ccc(O)cc2)Oc2ccccc21', '> 10 µM'),
  ('Cc1c(C#N)c(Sc2ccccc2NC(=O)c2ccco2)nc2ccccc12', '8.38 µM'),
  ('N#Cc1ccc(NC(=O)C2CC2(Cl)Cl)cc1 (centres undefined)', '> 10 µM'),
  ('CCCNC(=O)c1nnsc1S(=O)(=O)c1ccc(Cl)cc1', '> 9.54 µM'),
  ('CC(C)n1ncc2cc(C(=O)Nc3nnc(-c4ccccn4)[nH]3)cnc21', '> 10 µM'),
  ('Cc1ccc(-n2nc(C)c(C(=O)Nc3ccccc3N3CCN(C)CC3)n2)c(C)c1', '> 10 µM'),
  ('CC1C/C(=N\Nc2cc(Cl)cc(Cl)c2)c2cc(Cl)ccc2S1(=O)=O (centres undefined)', '> 8.17 µM'),
  ('CSc1c(C#N)c(-c2cc(C(C)(C)C)oc2C)nn1-c1ccc(I)cc1', '> 6.91 µM'),
  ('C=C1N(C)c2ccc(NC(=O)c3ccccc3)cc2C1(C)C', '3.46 µM'),
  ('Cc1ccc(-n2c(N(C)C)nc(/C=C(\C#N)C(=O)NC(C)c3ccccc3)c2Cl)cc1 (centres undefined)', '> 10 µM'),
  ('CCN1CCN(c2ccc(NC(=O)CSc3nc4ccccc4s3)c(C)c2)CC1', '> 10 µM'),
  ('CC(C)n1c(Sc2ncc([N+](=O)[O-])s2)nc2cc(C(F)(F)F)ccc21', '6.15 µM'),
  ('O=c1c2ccc(Cl)cc2nc(-c2cccc(C(F)(F)F)c2)n1O', '> 9.69 µM'),
  ('CCOc1cccc(-c2cn3c(-c4ccc(CO)cc4)cnc3cn2)c1', '0.828 µM'),
  ('N#C/C=C1\SCC(=O)N1CC(=O)c1ccc([N+](=O)[O-])cc1', '> 10 µM'),
  ('CC(Nc1ccnc2cc(Cl)ccc12)c1ccccc1Cl (centres undefined)', '3.6 µM'),
  ('COc1cc(OC)cc(C(=O)Nc2nc3ccccn3c2C(=O)NC2CCCC2)c1', '3.15 µM'),
  ('O=c1[nH]n(-c2ccc(Cl)c(Cl)c2)cc1-c1cccc(Cl)c1', '5.52 µM'),
  ('CCOC(=O)c1cnc(NNC(=O)c2ccc(Cl)cc2Cl)nc1C(F)(F)F', '> 7.8 µM'),
  ('O=C(OCN1C(=O)c2ccccc2C1=O)c1ccc(OCC2CCCO2)cc1 (centres undefined)', '> 10 µM'),
  ('CCCn1c(C)cc(/C=C(\C#N)C(=O)Nc2c(C)cccc2C(C)C)c1C', '2.35 µM'),
  ('Nc1nc2ccc(C(=O)N3CCN(C/C=C/c4ccccc4)CC3)cc2s1', '> 10 µM'),
  ('Cc1ccc(Cn2ncc3c(C(=O)N4CCN(c5ncccn5)CC4)cc(C)nc32)cc1', '> 10 µM'),
  ('CCC(=O)c1ccc(OCC(=O)N(C)C2CCc3ccccc32)cc1 (centres undefined)', '> 10 µM'),
  ('CC(OC(=O)c1ccccc1Nc1ccc(F)cc1)C(=O)N1CCCC1 (centres undefined)', '9.97 µM'),
  ('Cc1ccc2nc3ccccc3c(N3CCN(C(=O)c4ccccc4)CC3)c2c1', '3.42 µM'),
  ('CC(C)(C)c1cc(C(=O)N/N=C/c2ccc([N+](=O)[O-])s2)[nH]n1', '> 10.3 µM'),
  ('COC(=O)c1c(C)[nH]c(C(=O)C(C)Sc2nnc(Cc3cccc4ccccc34)n2C2CCCCC2)c1C (centres undefined)', '> 10 µM'),
  ('Cn1/c(=N/NC=C2CCC/C(=C/c3ccccc3)C2=O)sc2ccccc21', '> 10 µM'),
  ('CNC(=O)c1ccc(/C=C/C(=O)N(c2ccc(C)c(F)c2)c2nc3ccccc3s2)cc1', '8.92 µM'),
  ('CN(CC(=O)Nc1ccc(N2CCOCC2)cc1)Cn1nc(-c2cccs2)n(CC2CCCO2)c1=S (centres undefined)', '> 10 µM'),
  ('COC(=O)c1cc(CNC(=O)c2ccccc2O)ccc1OC', '> 10 µM');
